- System: carbapenem-resistant bacterial strains
- protocol: organism not typed
- Format: cell-based
- experimental_conditions: carbapenem-resistant isolate PA23
recorded_endpoint: MIC (µg/mL)
One number for each entry, in µg/mL.

I'd like to know its MIC. The sequence in question is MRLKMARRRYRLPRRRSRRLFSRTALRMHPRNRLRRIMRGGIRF [Chp2]
1

Now take the following sequence into account.
I'd like to know its MIC. The sequence in question is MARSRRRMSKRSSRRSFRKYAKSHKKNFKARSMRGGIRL [Ecp2]
2

====

- System: Pseudomonas aeruginosa
- protocol: microbe, parasite or virus in culture
- Format: cell-based
- experimental_conditions: P. aeruginosa (ATCC 17646, human liver abscess), RSC 1109; CAA without human serum
Kindly state MIC for each of the entries shown.
Your reply should be a number followed by the unit it is expressed in.

I'd like to know its MIC. The sequence in question is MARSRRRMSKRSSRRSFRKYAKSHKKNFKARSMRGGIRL [Ecp2]
4 µg/mL

I'd like to know its MIC. The sequence in question is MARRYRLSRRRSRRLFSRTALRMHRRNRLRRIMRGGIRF [Chp4]
4 µg/mL

I'd like to know its MIC. The sequence in question is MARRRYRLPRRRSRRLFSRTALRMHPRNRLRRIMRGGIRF [Chp6]
4 µg/mL

I'd like to know its MIC. The sequence in question is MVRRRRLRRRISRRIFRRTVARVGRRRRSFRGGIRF [Chp1]
8 µg/mL

// each sequence listed below needs its MIC
1. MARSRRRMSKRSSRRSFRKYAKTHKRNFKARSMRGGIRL [Ecp1]
2. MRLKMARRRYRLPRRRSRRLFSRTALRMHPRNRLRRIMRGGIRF [Chp2]

1: 2 µg/mL; 2: 4 µg/mL

====

- Tested on: Klebsiella pneumoniae strain 1139
- protocol: Checkerboard assay (FICI) with antibiotics, K. pneumoniae
- Assay type: cell-based
- experimental_conditions: checkerboard, in combination with Unp2-M1
recorded_endpoint: Antibiotic FIC
Answers are plain numbers.

# count of solved cases: 3
I'd like to know its Antibiotic FIC. The compound in question is NC[C@H]1O[C@H](O[C@H]2[C@H](O)[C@@H](O[C@H]3O[C@H](CO)[C@@H](O)[C@H](N)[C@H]3O)[C@H](N)C[C@@H]2N)[C@H](N)C[C@@H]1O [tobramycin, reference compound]
0.125

I'd like to know its Antibiotic FIC. The compound in question is C[C@@H](O)[C@H]1C(=O)N2C(C(=O)O)=C(S[C@@H]3CN[C@H](C(=O)N(C)C)C3)[C@H](C)[C@H]12 [meropenem, reference compound]
0.03125

I'd like to know its Antibiotic FIC. The compound in question is C[C@H]1[C@H](NC(=O)/C(=N\OC(C)(C)C(=O)O)c2csc(N)n2)C(=O)N1S(=O)(=O)O
0.007812

Now take the following compound into account.
I'd like to know its Antibiotic FIC. The compound in question is C[C@H]1COc2c(N3CCN(C)CC3)c(F)cc3c(=O)c(C(=O)O)cn1c23
0.01562

====

Kindly state Antibiotic MIC for each of the entries shown.
- Tested on: Klebsiella pneumoniae strain 1139
- protocol: Checkerboard assay (FICI) with antibiotics, K. pneumoniae
- Assay type: cell-based
- experimental_conditions: checkerboard, in combination with Chp6-M1
Numbers only, in ng/mL.

# count of solved cases: 4
Kindly state the measured Antibiotic MIC obtained for NC[C@H]1O[C@H](O[C@H]2[C@H](O)[C@@H](O[C@H]3O[C@H](CO)[C@@H](O)[C@H](N)[C@H]3O)[C@H](N)C[C@@H]2N)[C@H](N)C[C@@H]1O [tobramycin, reference compound] with Klebsiella pneumoniae strain 1139.
3.906

Kindly state the measured Antibiotic MIC obtained for C[C@H]1[C@H](NC(=O)/C(=N\OC(C)(C)C(=O)O)c2csc(N)n2)C(=O)N1S(=O)(=O)O [Aztreonam] with Klebsiella pneumoniae strain 1139.
7.812

Kindly state the measured Antibiotic MIC obtained for C[C@@H](O)[C@H]1C(=O)N2C(C(=O)O)=C(S[C@@H]3CN[C@H](C(=O)N(C)C)C3)[C@H](C)[C@H]12 [meropenem, reference compound] with Klebsiella pneumoniae strain 1139.
15.62

Kindly state the measured Antibiotic MIC obtained for CC[C@H]1OC(=O)[C@H](C)[C@@H](O[C@H]2C[C@@](C)(OC)[C@@H](O)[C@H](C)O2)[C@H](C)[C@@H](O[C@@H]2O[C@H](C)C[C@H](N(C)C)[C@H]2O)[C@](C)(O)C[C@@H](C)CN(C)[C@H](C)[C@@H](O)[C@]1(C)O [Azithromycin] with Klebsiella pneumoniae strain 1139.
1000

Now take the following compound into account.
Kindly state the measured Antibiotic MIC obtained for C[C@H]1COc2c(N3CCN(C)CC3)c(F)cc3c(=O)c(C(=O)O)cn1c23 [Levofloxacin] with Klebsiella pneumoniae strain 1139.
7.812
